- Assayed System: T1, HMK-His6-σ70, 32P-labeled (pHMK-His6-σ70) (Escherichia coli, UniProt P00579 1-613)
- T1 construct: range 1-613; also called ^32P-labeled ?^70; HMK-?^70
- Assay Comment: far-Western binding, 32P-σ70 probe; grade
Measured Property: binding result

| Binder | Readout Value |
| --- | --- |
| β′1-319 wild type, untagged (pTA620) (enzyme) MKDLLKFLKAQTKTEEFDAIKIALASPDMIRSWSFGEVKKPETINYRTFKPERDGLFCARIFGPVKDYECLCGKYKRLKHRGVICEKCGVEVTQTKVRRERMGHIELASPTAHIWFLKSLPSRIGLLLDMPLRDIERVLYFESYVVIEGGMTNLERQQILTEEQYLDALEEFGDEFDAKMGAEAIQALLKSMDLEQECEQLREELNETNSETKRKKLTKRIKLLEAFVQSGNKPEWMILTVLPVLPPDLRPLVPLDGGRFATSDLNDLYRRVINRNNRLKRLLDLAAPDIIVRNEKRMLQEAVDALLDNGRRGRAITGS | binds |
| β′ mutant L299D (enzyme) MKDLLKFLKAQTKTEEFDAIKIALASPDMIRSWSFGEVKKPETINYRTFKPERDGLFCARIFGPVKDYECLCGKYKRLKHRGVICEKCGVEVTQTKVRRERMGHIELASPTAHIWFLKSLPSRIGLLLDMPLRDIERVLYFESYVVIEGGMTNLERQQILTEEQYLDALEEFGDEFDAKMGAEAIQALLKSMDLEQECEQLREELNETNSETKRKKLTKRIKLLEAFVQSGNKPEWMILTVLPVLPPDLRPLVPLDGGRFATSDLNDLYRRVINRNNRLKRLLDLAAPDIIVRNEKRMDQEAVDALLDNGRRGRAITGS | no binding |
| β′ mutant N274P (enzyme) MKDLLKFLKAQTKTEEFDAIKIALASPDMIRSWSFGEVKKPETINYRTFKPERDGLFCARIFGPVKDYECLCGKYKRLKHRGVICEKCGVEVTQTKVRRERMGHIELASPTAHIWFLKSLPSRIGLLLDMPLRDIERVLYFESYVVIEGGMTNLERQQILTEEQYLDALEEFGDEFDAKMGAEAIQALLKSMDLEQECEQLREELNETNSETKRKKLTKRIKLLEAFVQSGNKPEWMILTVLPVLPPDLRPLVPLDGGRFATSDLNDLYRRVIPRNNRLKRLLDLAAPDIIVRNEKRMLQEAVDALLDNGRRGRAITGS | no binding |
| β′1-319 N309D (pTA619) (enzyme) MKDLLKFLKAQTKTEEFDAIKIALASPDMIRSWSFGEVKKPETINYRTFKPERDGLFCARIFGPVKDYECLCGKYKRLKHRGVICEKCGVEVTQTKVRRERMGHIELASPTAHIWFLKSLPSRIGLLLDMPLRDIERVLYFESYVVIEGGMTNLERQQILTEEQYLDALEEFGDEFDAKMGAEAIQALLKSMDLEQECEQLREELNETNSETKRKKLTKRIKLLEAFVQSGNKPEWMILTVLPVLPPDLRPLVPLDGGRFATSDLNDLYRRVINRNNRLKRLLDLAAPDIIVRNEKRMLQEAVDALLDDGRRGRAITGS | binds |
